# cell viability per entry
Tested on: NOMO1
testProtocol: cell viability relative to DMSO control; higher = less cytotoxic
testSettings: HPLM + 10% dialyzed FBS; 48 h; 1.71 µM
Just the number in %, nothing appended.

Recorded cell viability, per entry:
C/C=C1\C2C=C(C)CC1(N)c1ccc(=O)[nH]c1C2 (stereo not given)
106
COc1cc2c(cc1OC)CC(=O)N(CCCN(C)C[C@H]1Cc3cc(OC)c(OC)cc31)CC2.Cl
112
COc1cc2ncnc(Nc3ccc(F)c(Cl)c3)c2cc1NC(=O)/C=C/CN1CCCCC1
81.8
CO[C@@H]1COCC[C@@H]1N[C@@H]1CC[C@@](C(=O)N2CCc3ncc(C(F)(F)F)cc3C2)(C(C)C)C1
127

Please look at the following compound next.
Sample "CN1C[C@H]2c3ccccc3Oc3ccc(Cl)cc3[C@@H]2C1" — what was its cell viability?
96

###

System: NOMO1
testProtocol: cell viability relative to DMSO control; higher = less cytotoxic
testSettings: RPMI 5 mM glucose + 10% dialyzed FBS; 48 h; 0.0211 µM
Here the recorded cell viability is given for each entry.
Respond with the bare value in %.

C=CC(=O)N1CCC[C@@H](n2nc(-c3ccc(Oc4ccccc4)cc3)c3c(N)ncnc32)C1
102
COc1cc(OC)c(/C=C/[S+](=O)([O-])Cc2ccc(OC)c(NCC(=O)[O][Na])c2)c(OC)c1
117
NC(=O)c1ccc(I)c([N+](=O)[O-])c1
143

Switching to the query record.
Under NOMO1: cell viability value of "CSCC[C@@H](NC(=O)[C@@H](Cc1ccccc1)NC(=O)CNC(=O)CNC(=O)[C@@H](N)Cc1ccc(O)cc1)C(=O)O" ?
34.8

###

Here, each record is paired with measured cell viability data.
System: NOMO1
testProtocol: cell viability relative to DMSO control; higher = less cytotoxic
testSettings: HPLM + 10% dialyzed FBS; 48 h; 0.00702 µM
Dear colleague, please return just the value in %, with no unit written.

These recorded examples may help you get a feel for the data.
O=C(Nc1ccc(F)c(C(F)(F)F)c1)Nc1nnc(-c2ccncc2)s1
127
O=C1c2c(O)ccc(O)c2C(=O)c2c(NCCNCCO)ccc(NCCNCCO)c21
127
Cc1cnc(-c2cc(N3CCN(C(=O)CC[S+](C)(=O)[O-])CC3)ncc2Cl)c(C)c1
132
COC1=C2OC(=O)\C=C/C2=CC3=C1OC=C3
120
CCC(C)(C)c1ccc(CC(C)CN2C[C@@H](C)O[C@@H](C)C2)cc1 (some centres undefined)
87.9
Cc1cnc(NC(=O)Nc2cc(Br)c(C)cc2OC[C@@H]2CNCCO2)cn1
107
O=C(c1ccc(Nc2nccc(-c3cc4ccccc4s3)n2)cc1)N1CCC(N2CCCC2)CC1
125
Cc1ccc([S+](=O)([O-])N[C@@H](Cc2ccccc2)C(=O)CCl)cc1
119
COC1=CC=C(C=C1)C/2=C/OC3=C(C(=CC(=C3)O)O)C2=O
133
O=C(Nc1ccccc1-c1cn2c(CN3CCNCC3)csc2n1)c1cnc2ccccc2n1
71.9

Given the compound "OC1=CC2=C(C(=C1)O)C(=O)\C=C(/O2)C3=CC=CC=C3" , what is its reported cell viability?
103

cell viability lookup needed for "Cc1[nH]c2ccccc2c1CCNCc1ccc(/C=C/C(=O)NO)cc1" , thanks.
126

Please report the recorded cell viability for "NC(=O)c1ccc(I)c([N+](=O)[O-])c1" .
110

Return reported cell viability; argument: "N=C(NCCCCCCNC(=N)NC(=N)Nc1ccc(Cl)cc1)NC(=N)Nc1ccc(Cl)cc1"
100
